tested-target: purified HLA-B7 (human)
test-details: competition with iodinated … for purified HLA-B7
The following binders are listed with their measured pIC50 values.
As a rule, pIC50 stands for the negative log10 of the concentration, concentration in M.

Give its pIC50 value. Item: SPAVDKAQAEL (Synthetic, HPLC-purified peptide; Differs from the SMCY peptide by A for S at position 3 and Q for R at position 8; also called peptide derived from the X chromosomal homolog SMCX (XE169)) [SMCX peptide SPAVDKAQAEL]
6.85

Shifting focus to the binder that follows.
Can you share its pIC50? I mean this binder: SPSVDKARAEL (also called H-Y peptide; peptide 1171) [SMCY peptide SPSVDKARAEL]
7.47

Source listed as patent US7008922.
